# test-description: in vivo
# Design: species or system Beagle dogs
# test-parameters: both sexes, beagle, dog, in vivo, Average tissue concentration, Striatum
property-measured: concentration at 15 min (ng/g)
Supply the numeric figure in ng/g, leaving out any unit text.

In: Identify the reported concentration at 15 min for the following entry. COc1cc(/C=C/C(=O)CC(=O)/C=C/c2ccc(O)c(OC)c2)ccc1O [Curcumin, reference compound]
Out: 0.48

* * *

# test-description: Tissue distribution of curcumin and THC at necropsy 15 minutes post-infusion
# Parameters: species or system Beagle dogs
# test-parameters: both sexes, beagle, dog, in vivo, 10 mg/kg, Table 14, 2 hour infusion; +H3PO4; read-out: Tissue analysis, Spleen
property-measured: concentration at 15 min (ng/g)
Supply the numeric figure in ng/g, leaving out any unit text.

In: Identify the reported concentration at 15 min for the following entry. COc1cc(CCC(=O)CC(=O)CCc2ccc(O)c(OC)c2)ccc1O [THC, tetrahydrocurcumin]
Out: 1.6
